ASSAYED TARGET: Ybr033w (UniProt P38073)
Sequence: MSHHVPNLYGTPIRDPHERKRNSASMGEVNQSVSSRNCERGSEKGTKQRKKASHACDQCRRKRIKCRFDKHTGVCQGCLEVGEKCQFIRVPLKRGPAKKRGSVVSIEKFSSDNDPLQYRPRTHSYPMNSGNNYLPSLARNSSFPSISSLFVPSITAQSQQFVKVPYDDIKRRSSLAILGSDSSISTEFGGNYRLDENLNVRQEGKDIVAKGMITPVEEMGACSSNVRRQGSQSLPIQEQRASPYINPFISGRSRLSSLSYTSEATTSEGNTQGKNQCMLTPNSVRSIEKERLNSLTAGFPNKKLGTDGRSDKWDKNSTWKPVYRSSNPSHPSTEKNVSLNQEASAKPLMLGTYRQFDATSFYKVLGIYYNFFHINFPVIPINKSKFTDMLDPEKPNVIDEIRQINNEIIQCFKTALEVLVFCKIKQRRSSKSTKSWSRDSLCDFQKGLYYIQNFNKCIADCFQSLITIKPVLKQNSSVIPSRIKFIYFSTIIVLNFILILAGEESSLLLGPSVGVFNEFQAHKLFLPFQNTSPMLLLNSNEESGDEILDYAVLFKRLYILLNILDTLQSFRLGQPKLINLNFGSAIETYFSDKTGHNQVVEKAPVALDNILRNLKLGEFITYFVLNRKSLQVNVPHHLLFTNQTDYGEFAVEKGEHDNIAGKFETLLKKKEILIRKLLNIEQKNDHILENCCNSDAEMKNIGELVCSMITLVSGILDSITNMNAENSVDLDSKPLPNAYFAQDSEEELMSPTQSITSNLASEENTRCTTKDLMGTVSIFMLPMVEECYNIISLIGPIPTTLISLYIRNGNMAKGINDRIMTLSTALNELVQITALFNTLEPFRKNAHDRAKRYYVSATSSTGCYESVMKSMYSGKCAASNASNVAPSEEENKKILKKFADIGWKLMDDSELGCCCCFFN
ASSAY SUMMARY: PBM E-score (8-mer binding enrichment) (E-score (-0.5 to 0.5)); higher = stronger / more preferred TF binding
CONDITION: protein concentration: 200 nM; construct: GST-full length
Over roughly 33,000 sequences, “E-score (-0.5 to 0.5)” has its median near -0.012; the highest 2% begin near 0.29. The full list was thinned out, with the highest values kept by preference.
EXPERIMENTAL READOUT: PBM E-score

* AATCCAGC | 0.0372
* AATTACTC | 0.328
* CAATGATC | 0.0568
* CATTATCC | 0.224
* GATTATCC | 0.396
* AGGATTAC | 0.106
* ATAGATTG | 0.107
* CATTATTA | 0.243
* AGGATTAT | 0.306
* AGGATTCA | 0.114

Can you give me PBM E-score for all of these, one by one?
1. AAATGATC
2. AATTATAC
3. TCACTAGA

Out:
1: 0.328; 2: 0.284; 3: 0.12

###

Give PBM E-score for every item shown.
ASSAYED TARGET: Ybr033w (UniProt P38073)
Sequence: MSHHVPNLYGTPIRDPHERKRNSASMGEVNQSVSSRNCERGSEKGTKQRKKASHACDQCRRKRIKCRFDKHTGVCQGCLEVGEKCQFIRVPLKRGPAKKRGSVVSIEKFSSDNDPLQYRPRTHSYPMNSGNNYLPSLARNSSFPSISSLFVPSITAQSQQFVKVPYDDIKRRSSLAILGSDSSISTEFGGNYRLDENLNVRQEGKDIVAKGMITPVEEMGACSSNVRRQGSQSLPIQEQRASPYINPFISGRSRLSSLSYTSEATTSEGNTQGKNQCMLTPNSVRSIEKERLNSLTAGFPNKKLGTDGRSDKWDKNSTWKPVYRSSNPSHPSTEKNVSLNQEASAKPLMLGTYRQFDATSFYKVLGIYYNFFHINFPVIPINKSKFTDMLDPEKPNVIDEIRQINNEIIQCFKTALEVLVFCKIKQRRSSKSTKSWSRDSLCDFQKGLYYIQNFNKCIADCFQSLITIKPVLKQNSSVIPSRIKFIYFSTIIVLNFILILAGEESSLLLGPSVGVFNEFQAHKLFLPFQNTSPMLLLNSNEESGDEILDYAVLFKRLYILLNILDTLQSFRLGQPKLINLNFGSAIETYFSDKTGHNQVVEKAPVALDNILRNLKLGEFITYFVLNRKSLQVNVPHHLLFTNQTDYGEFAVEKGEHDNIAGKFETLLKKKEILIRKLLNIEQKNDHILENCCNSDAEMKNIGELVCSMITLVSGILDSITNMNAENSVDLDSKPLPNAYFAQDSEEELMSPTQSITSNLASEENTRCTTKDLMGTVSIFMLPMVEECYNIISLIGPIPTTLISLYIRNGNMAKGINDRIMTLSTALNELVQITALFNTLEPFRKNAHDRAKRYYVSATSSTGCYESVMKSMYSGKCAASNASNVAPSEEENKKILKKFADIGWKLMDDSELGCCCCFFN
ASSAY SUMMARY: PBM E-score (8-mer binding enrichment) (E-score (-0.5 to 0.5)); higher = stronger / more preferred TF binding
CONDITION: protein concentration: 200 nM; construct: GST-full length
Over roughly 33,000 sequences, “E-score (-0.5 to 0.5)” has its median near -0.012; the highest 2% begin near 0.29. What follows is part of a selection rich in the highest values, with near analogues and random picks from the rest.
One number for each entry.

Can you give me PBM E-score for all of these, one by one?
1. GATAATGC
2. TTGATAAA
3. AGGATAAT
4. AAGTACTG
5. GATAATCA

Out:
1: 0.115; 2: 0.368; 3: 0.36; 4: 0.112; 5: 0.236

Can you give me PBM E-score for all of these, one by one?
1. ATAGCTGG
2. ATGATAAA
3. TAGATAAA
4. CAAAGACA

Out:
1. -0.0109
2. 0.238
3. 0.341
4. 0.0541

Can you give me PBM E-score for all of these, one by one?
1. ATATTTGC
2. TGGATACA
3. AACAATCG
4. TGGATAAA
5. CAGGCATC
6. AAATACTT

Out:
[0.222, 0.0503, 0.0843, 0.391, 0.00941, 0.34]

Can you give me PBM E-score for all of these, one by one?
1. ATTTAGGC
2. AACAATCT
3. AACTTCCC
4. ATCCATGC
5. AAGATAAA
6. AATCCAGA

Out:
1: 0.117; 2: 0.168; 3: 0.00652; 4: 0.0934; 5: 0.257; 6: 0.295

In: Please report the recorded PBM E-score for TCGATAAA .
Out: 0.167

Recorded values, source the supplement of paper PMC3334620.
